Target: Human DR5 (Homo sapiens, UniProt O14763)
Test: Binding affinity of antibody to human DR5 (BIAcore, CM5 chip)
Details: association rate, Human DR5, 1:1 Langmuir binding model
measure: Ka(1/Ms)

// known answers, use as guide
Reported Ka(1/Ms) of DA35: humanized or deimmunized variant of parental clone D0; CDRs SEQ ID NO 1, 2, 7 / 4, 10, 13 (antibody, V domains shown) VH: AVTLDESGGGLQTPGGGLSLVCKGSGFTFSSFNMLWVRQAPGKGLEWVAGIGKSDRYTGYGSAVKGRATISRDDGQSTARLQMNSLRAEDTAVYYCVKDAGSGCGSGGWTGACIDTWGHGTEVIVSS VL: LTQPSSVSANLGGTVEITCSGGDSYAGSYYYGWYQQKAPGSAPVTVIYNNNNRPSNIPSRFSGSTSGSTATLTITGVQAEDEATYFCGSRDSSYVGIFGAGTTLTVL : 1.13 × 10^06 1/Ms

Reported Ka(1/Ms) of DA20: humanized or deimmunized variant of parental clone D0; CDRs SEQ ID NO 1, 2, 7 / 4, 10, 14 (antibody, V domains shown) VH: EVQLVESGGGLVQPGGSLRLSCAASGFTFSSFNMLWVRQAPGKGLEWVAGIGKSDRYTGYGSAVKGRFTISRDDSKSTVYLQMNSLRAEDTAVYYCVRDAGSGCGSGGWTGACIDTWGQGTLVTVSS VL: DIQMTQSPSSLSASVGDRVTITCSGGDSYAGSYYYGWYQQKPGKAPKTLIYNNNNRPSGVPSRFSGSRSGTDFTLTISSLQPEDFATYYCGSRDSAGMGAFGQGTKVEIK : 1.00 × 10^06 1/Ms

Reported Ka(1/Ms) of DA30: humanized or deimmunized variant of parental clone D0; CDRs SEQ ID NO 1, 2, 7 / 4, 10, 13 (antibody, V domains shown) VH: AVTLDESGGGLQTPGGGLSLVCKGSGFTFSSFNMLWVRQAPGKGLEWVAGIGKSDRYTGYGSAVKGRATISRDDGQSTAYLQMNSLRAEDTGTYYCVKDAGSGCGSGGWTGACIDTWGHGTEVIVSS VL: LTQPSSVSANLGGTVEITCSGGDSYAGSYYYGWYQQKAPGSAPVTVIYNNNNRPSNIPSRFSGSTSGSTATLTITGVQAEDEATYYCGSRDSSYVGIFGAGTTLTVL : 1.03 × 10^06 1/Ms

Reported Ka(1/Ms) of DA16: humanized or deimmunized variant of parental clone D0; CDRs SEQ ID NO 1, 2, 7 / 4, 10, 16 (antibody, V domains shown) VH: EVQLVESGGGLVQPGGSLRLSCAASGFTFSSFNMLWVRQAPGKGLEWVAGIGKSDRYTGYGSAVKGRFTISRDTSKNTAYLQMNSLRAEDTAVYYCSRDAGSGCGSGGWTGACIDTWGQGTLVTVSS VL: DIQMTQSPSSLSASVGDRVTITCSGGDSYAGSYYYGWYQQKPGKAPKTLIYNNNNRPSGVPSRFSGSRSGTDFTLTISSLQPEDFATYYCGSRDSSGAGGFGQGTKVEIK : 2.11 × 10^06 1/Ms

Reported Ka(1/Ms) of DA22: humanized or deimmunized variant of parental clone D0; CDRs SEQ ID NO 1, 2, 8 / 4, 10, 13 (antibody, V domains shown) VH: EVQLVESGGGLVQPGGSLRLSCAASGFTFSSFNMLWVRQAPGKGLEWVAGIGKSDRYTGYGSAVKGRFTISRDDSKSTVYLQMNSLRAEDTAVYYCVRDAGSPCGSGGWTGACIDTWGQGTLVTVSS VL: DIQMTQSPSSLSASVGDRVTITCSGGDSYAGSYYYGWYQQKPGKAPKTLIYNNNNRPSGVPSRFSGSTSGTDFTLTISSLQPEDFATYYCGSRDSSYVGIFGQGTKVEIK : 9.32 × 10^05 1/Ms

Reported Ka(1/Ms) of DA15: humanized or deimmunized variant of parental clone D0; CDRs SEQ ID NO 1, 2, 7 / 4, 10, 15 (antibody, V domains shown) VH: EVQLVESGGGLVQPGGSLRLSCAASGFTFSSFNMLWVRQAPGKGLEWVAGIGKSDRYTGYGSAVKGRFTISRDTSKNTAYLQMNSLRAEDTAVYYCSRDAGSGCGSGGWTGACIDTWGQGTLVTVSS VL: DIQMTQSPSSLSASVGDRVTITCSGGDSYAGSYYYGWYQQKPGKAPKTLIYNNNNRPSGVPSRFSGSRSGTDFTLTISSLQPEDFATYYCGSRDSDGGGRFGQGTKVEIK : 2.56 × 10^06 1/Ms

Reported Ka(1/Ms) of DA21: humanized or deimmunized variant of parental clone D0; CDRs SEQ ID NO 1, 2, 7 / 4, 10, 16 (antibody, V domains shown) VH: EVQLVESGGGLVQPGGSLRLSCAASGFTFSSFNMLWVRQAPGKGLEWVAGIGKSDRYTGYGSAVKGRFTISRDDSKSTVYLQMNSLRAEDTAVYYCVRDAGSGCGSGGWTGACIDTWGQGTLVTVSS VL: DIQMTQSPSSLSASVGDRVTITCSGGDSYAGSYYYGWYQQKPGKAPKTLIYNNNNRPSGVPSRFSGSRSGTDFTLTISSLQPEDFATYYCGSRDSSGAGGFGQGTKVEIK : 1.11 × 10^06 1/Ms

Attention now turns to another entry.
Reported Ka(1/Ms) of DA26: humanized or deimmunized variant of parental clone D0; CDRs SEQ ID NO 1, 2, 7 / 4, 10, 13 (antibody, V domains shown) VH: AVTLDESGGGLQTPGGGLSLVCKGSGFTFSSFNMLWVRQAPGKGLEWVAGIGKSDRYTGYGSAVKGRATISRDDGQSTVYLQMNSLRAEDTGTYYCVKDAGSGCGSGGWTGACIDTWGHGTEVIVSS VL: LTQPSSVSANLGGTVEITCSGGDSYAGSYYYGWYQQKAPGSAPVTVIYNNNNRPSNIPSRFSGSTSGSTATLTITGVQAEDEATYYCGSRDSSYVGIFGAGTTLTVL : 1.09 × 10^06 1/Ms
